# experiment: Acute toxicity, LD50 in mice
# Format: in vivo
# condition-set: mouse, in vivo, po
measured-metric: LD50

IN: I have this molecule here, N[C@H](C(=O)O)[C@H](O)c1ccc(O)c(O)c1 (relative stereo) [threo-DOPS, threo-3,4-dihydroxyphenylserine] , and I need its recorded LD50.
OUT: > 10000 mg/kg
